- System: atrial strip
- MEASUREMENT NOTES: Cardiotonic activity, Test 2: contractile force and heart rate of isolated atrial strip
- Set-up: species or system Male Hartley strain guinea-pigs
- CONDITION DETAILS: Cavia porcellus, 0.5 h; 1 × 10^-5 g/ml; 30° C.; observed for 30 min; percentage before and after dosing
ENDPOINT: inhibition at 10 µg/mL (%)
Just the number please, in %, no unit attached.

Example compounds with recorded inhibition at 10 µg/mL:
COc1ccc(-c2nc(-c3cccnc3)c(C)[nH]2)c(OC)c1 [Compound a] :: 21.2
CCc1[nH]c(-c2ccc(OC)c(OC)c2)nc1-c1ccccn1 [Compound d] :: 14.1
CCc1[nH]c(-c2ccc(OC)cc2OC)nc1-c1ccncc1 [Compound f] :: 30.7

Next:
# COc1ccc(-c2nc(-c3ccncc3)c(C)[nH]2)c(OC)c1 [Compound e] with atrial strip: inhibition at 10 µg/mL is 26.8
